Test system: L. infantum promastigotes (Strain MHOM/BR/70/BH46)
Assay name: Anti-promastigote effect, Neubauer chamber counting
Type: cell-based, Leishmania infantum
Condition details: Leishmania infantum, 72 h incubation, read-out: L. infantum IC50PRO
Measured attribute: IC50 (µM)

See these solved cases before continuing.
Compound: COc1ccc(/C=N/N2C(=O)C(C#N)=CC23c2ccccc2Nc2ccccc23)cc1
Output unit: µM
IC50: 2.22

Compound: C[C@@H]1[C@H](O)[C@@H](C)/C=C/C=C/C=C/C=C/C=C/C=C/C=C/[C@H](O[C@@H]2O[C@H](C)[C@@H](O)[C@H](N)[C@@H]2O)C[C@@H]2O[C@](O)(C[C@@H](O)C[C@@H](O)[C@H](O)CC[C@@H](O)C[C@@H](O)CC(=O)O[C@H]1C)C[C@H](O)[C@H]2C(=O)O [ANFO B, Amphotericin B, reference compound]
Output unit: µM
IC50: 0.05

[1] N#CC1=CC2(c3ccccc3Nc3ccccc32)N(c2ccccc2)C1=O
[2] N#CC1=CC2(c3ccccc3Nc3ccccc32)N(/N=C/c2ccccc2)C1=O
Between these two entries, 1 and 2 , state which has the higher IC50. Please respond with the label that marks your chosen entry. 2
(2: 6.27 µM, 1: 3.9 µM)
